assayed.target: FGFR3 (Homo sapiens (Human), UniProt P22607)
Sequence (P22607 23-806): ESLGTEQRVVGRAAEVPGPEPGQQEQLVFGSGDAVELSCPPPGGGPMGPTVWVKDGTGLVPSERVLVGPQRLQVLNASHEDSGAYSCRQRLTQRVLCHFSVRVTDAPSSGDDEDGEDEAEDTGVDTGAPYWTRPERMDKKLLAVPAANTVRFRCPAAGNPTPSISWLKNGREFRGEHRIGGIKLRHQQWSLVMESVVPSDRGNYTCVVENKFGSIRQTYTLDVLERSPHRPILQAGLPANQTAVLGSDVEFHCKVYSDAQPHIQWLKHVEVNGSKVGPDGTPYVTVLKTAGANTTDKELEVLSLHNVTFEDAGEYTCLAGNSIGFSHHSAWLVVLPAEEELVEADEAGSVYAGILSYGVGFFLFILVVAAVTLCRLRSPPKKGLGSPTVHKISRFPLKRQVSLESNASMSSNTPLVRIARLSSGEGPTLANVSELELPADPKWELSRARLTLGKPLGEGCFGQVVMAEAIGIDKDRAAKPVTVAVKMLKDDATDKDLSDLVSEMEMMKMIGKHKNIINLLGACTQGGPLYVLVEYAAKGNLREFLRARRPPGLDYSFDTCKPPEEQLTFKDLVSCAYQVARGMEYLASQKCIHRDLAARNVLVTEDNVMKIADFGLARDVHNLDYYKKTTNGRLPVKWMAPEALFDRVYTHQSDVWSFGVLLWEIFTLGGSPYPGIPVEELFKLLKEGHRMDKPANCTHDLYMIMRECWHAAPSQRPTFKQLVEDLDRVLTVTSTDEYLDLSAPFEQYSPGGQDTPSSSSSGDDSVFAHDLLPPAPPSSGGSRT
protocol: FGFR Enzymatic Assay (FRET peptide phosphorylation), FGFR3
condition.details: IC50 ratio, pre-incubated for 4 hours
parameter.measured: FGFR3/FGFR4

In plain terms, C=CC(=O)N(C)c1cc2c(cn1)CN(c1c(F)c(OC)cc(OC)c1F)C(=O)C21CC1 has a documented FGFR3/FGFR4 of >10

Record C=CC(=O)Nc1ccccc1Nc1cc2c(cn1)CN(c1c(F)c(OC)cc(OC)c1F)C(=O)C21CCOC1 (stereo not shown) . Reported FGFR3/FGFR4: >100

Entry C=CC(=O)Nc1ccccc1Nc1cc2c(cn1)CN(c1c(F)c(OC)cc(OC)c1F)C(=O)C21CCOCC1 — recorded FGFR3/FGFR4 = >100

Lab note: measured FGFR3/FGFR4 of C=CC(=O)Nc1ccc(N2CCN(C)CC2)cc1Nc1cc2c(cn1)CN(c1c(F)c(OC)cc(OC)c1F)C(=O)C21CC1 was >100
